These measurements were taken from ChEMBL document CHEMBL4007392.

target: Mineralocorticoid receptor (Homo sapiens); assay: Antagonist activity at full-length human MR expressed in CHO-K1 cells assessed as inhibition of aldosterone-induced response measured after overnight incubation by luminesence analysis; type: cell-based
PROPERTY_MEASURED: Inhibitory potency (nM)
// return numeric value only (unit: nM, not printed)

Value sought: Inhibitory potency, system Mineralocorticoid receptor (Homo sapiens), item CCC(O)C(CC(F)F)(c1ccc(C(F)(F)F)cc1)n1ncc2c(NS(C)(=O)=O)cccc21 (stereo not drawn) . Result: 15

Value sought: Inhibitory potency, system Mineralocorticoid receptor (Homo sapiens), item CCC(c1ccc(C(F)(F)F)cc1)(C(O)C(F)F)n1ncc2c(NS(=O)(=O)CC)cccc21 (stereo not drawn) . Result: 4

Value sought: Inhibitory potency, system Mineralocorticoid receptor (Homo sapiens), item CCC(c1ccc(C(F)(F)F)cc1)(C(O)C(F)F)n1ncc2c(NS(C)(=O)=O)cccc21 (stereo not drawn) . Result: 11

Value sought: Inhibitory potency, system Mineralocorticoid receptor (Homo sapiens), item CCC(c1ccc(Br)cc1)(C(C)O)n1ncc2c(NS(C)(=O)=O)cccc21 (stereo not drawn) . Result: 7

Value sought: Inhibitory potency, system Mineralocorticoid receptor (Homo sapiens), item CCC(O)C(CC)(c1ccc(C(F)(F)F)cc1)n1ncc2c(NS(C)(=O)=O)cccc21 (stereo not drawn) . Result: 4

Value sought: Inhibitory potency, system Mineralocorticoid receptor (Homo sapiens), item CCC(c1ccc(C(F)(F)F)cc1)(C(O)C(F)F)n1ncc2c(NS(=O)(=O)CC)cc(F)cc21 (stereo not drawn) . Result: 11

Value sought: Inhibitory potency, system Mineralocorticoid receptor (Homo sapiens), item CCC(O)C(CC)(c1ccc(C(F)(F)F)cc1)n1ncc2c(NS(C)(=O)=O)cc(F)cc21 (stereo not drawn) . Result: 9

Value sought: Inhibitory potency, system Mineralocorticoid receptor (Homo sapiens), item CCC(O)C(CC)(c1ccc(Br)cc1)n1ncc2c(NS(C)(=O)=O)cccc21 (stereo not drawn) . Result: 3

----------
For each of the molecules below, state its pKi.
molecular target: Mineralocorticoid receptor (Homo sapiens); test: Displacement of [3H]-Aldosterone from MR overexpressed in human 293 cells measured after 2 hrs by Microbeta scintillation counting method; format: cell-based
Field pKi (float): negative decimal logarithm of the concentration in molar.

Measured pKi of `C[C@H](CN1CCOCC1)n1/c(=N\C(N)=O)[nH]c2cc(/C=C3\c4ccccc4COc4cc(F)ccc43)ccc21` : 9.48

Measured pKi of `C[C@H](CN1CCOCC1)n1/c(=N\C#N)[nH]c2cc(/C=C3\c4ccccc4COc4cc(F)ccc43)ccc21` : 9.40

Measured pKi of `C[C@H](CN1CCOCC1)n1/c(=N\C#N)[nH]c2cc(/C=C3\c4ccc(F)cc4COc4cc(F)ccc43)ccc21` : 9.10

----------
For each of the molecules below, state its pIC50.
Target: Mineralocorticoid receptor (Homo sapiens, UniProt P08235)
Sequence (P08235 whole entry): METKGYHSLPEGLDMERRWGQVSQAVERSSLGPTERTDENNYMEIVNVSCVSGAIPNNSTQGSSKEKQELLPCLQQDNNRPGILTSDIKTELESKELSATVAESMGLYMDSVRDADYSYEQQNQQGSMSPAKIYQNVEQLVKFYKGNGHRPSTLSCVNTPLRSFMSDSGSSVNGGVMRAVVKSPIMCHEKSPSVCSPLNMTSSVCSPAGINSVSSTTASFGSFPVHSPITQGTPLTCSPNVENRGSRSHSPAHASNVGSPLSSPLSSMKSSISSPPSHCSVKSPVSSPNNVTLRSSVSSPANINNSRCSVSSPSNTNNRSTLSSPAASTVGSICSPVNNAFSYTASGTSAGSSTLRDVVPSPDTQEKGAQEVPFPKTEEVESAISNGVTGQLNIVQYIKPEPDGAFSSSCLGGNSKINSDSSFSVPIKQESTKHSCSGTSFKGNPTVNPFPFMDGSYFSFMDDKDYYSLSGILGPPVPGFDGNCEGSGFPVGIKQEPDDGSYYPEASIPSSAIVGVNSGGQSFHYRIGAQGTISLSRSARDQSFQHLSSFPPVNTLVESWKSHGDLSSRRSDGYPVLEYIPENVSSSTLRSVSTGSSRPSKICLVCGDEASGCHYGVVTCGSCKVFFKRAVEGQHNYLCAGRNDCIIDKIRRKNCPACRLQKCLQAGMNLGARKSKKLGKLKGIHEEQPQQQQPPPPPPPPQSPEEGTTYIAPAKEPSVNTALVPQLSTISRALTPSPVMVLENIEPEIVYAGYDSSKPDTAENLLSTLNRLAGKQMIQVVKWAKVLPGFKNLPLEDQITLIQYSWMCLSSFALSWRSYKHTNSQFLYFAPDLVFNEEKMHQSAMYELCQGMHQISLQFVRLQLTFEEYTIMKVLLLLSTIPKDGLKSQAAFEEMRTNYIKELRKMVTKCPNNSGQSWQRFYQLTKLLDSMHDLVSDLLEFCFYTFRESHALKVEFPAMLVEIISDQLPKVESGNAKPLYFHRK
Experiment: Antagonist activity at Gal4-fused human MR LBD (671 to 984 residues) expressed in African Green Monkey CV-1 cells assessed as inhibition of aldosterone-induced transactivation activity after 20 hrs by luciferase reporter gene assay
Assay type: cell-based
pIC50: −log10 of the molar value.

Measured pIC50 of `Cc1cc(C(=O)Nc2cccc3ccccc23)c(C)n1-c1ccccc1C(F)(F)F` : > 6.30

Measured pIC50 of `Cc1[nH]c(C(=O)Nc2ccc(S(C)(=O)=O)cc2)c(C)c1-c1ccccc1C(F)(F)F` : > 6.30

Measured pIC50 of `Cc1cc(C(=O)Nc2ccc(S(N)(=O)=O)cc2)c(C)n1-c1ccccc1C(F)(F)F` : > 6.30

Measured pIC50 of `Cc1cc(C(=O)NCCc2ccccc2)c(C)n1-c1ccccc1C(F)(F)F` : > 6.30

Measured pIC50 of `Cc1c(C(=O)Nc2ccc(S(C)(=O)=O)cc2)cn([C@H](C)[C@H](C)O)c1-c1ccc(F)cc1C(F)(F)F` : 8.42

Measured pIC50 of `Cc1ccc(NC(=O)c2cc(C)n(-c3ccccc3C(F)(F)F)c2C)cc1Cl` : > 6.30
